# System Tested: Thrombin (Homo sapiens, UniProt P00734)
# Method Notes: thrombin inhibition activity assay (D.4), specific activity
# Format: biochemical
# Measurement Conditions: before PEG modification; activity relative to wild type PN-1
Readout Label: REL TO WT, BEFORE PEG MODIFICATION
Hey, just send me the number, nothing else.

Molecule | Readout Label | Value
E230C (conjugate, UniProt P07093 20-398, looked up, variant E230C, PEG) Glia-derived nexin: SHFNPLSLEELGSNTGIQVFNQIVKSRPHDNIVISPHGIASVLGMLQLGADGRTKKQLAMVMRYGVNGVGKILKKINKAIVSKKNKDIVTVANAVFVKNASEIEVPFVTRNKDVFQCEVRNVNFEDPASACDSINAWVKNETRDMIDNLLSPDLIDGVLTRLVLVNAVYFKGLWKSRFQPENTKKRTFVAADGKSYQVPMLAQLSVFRCGSTSAPNDLWYNFIELPYHGCSISMLIALPTESSTPLSAIIPHISTKTIDSWMSIMVPKRVQVILPKFTAVAQTDLKEPLKVLGITDMFDSSKANFAKITTGSENLHVSHILQKAKIEVSEDGTKASAATTAILIARSSPPWFIVDRPFLFFIRHNPTGAVLFMGQINKP | REL TO WT, BEFORE PEG MODIFICATION | 0.14

# input for lookup
Lab book: REL TO WT, BEFORE PEG MODIFICATION of E125C (conjugate, UniProt P07093 20-398, looked up, variant E125C, PEG) Glia-derived nexin: SHFNPLSLEELGSNTGIQVFNQIVKSRPHDNIVISPHGIASVLGMLQLGADGRTKKQLAMVMRYGVNGVGKILKKINKAIVSKKNKDIVTVANAVFVKNASEIEVPFVTRNKDVFQCEVRNVNFCDPASACDSINAWVKNETRDMIDNLLSPDLIDGVLTRLVLVNAVYFKGLWKSRFQPENTKKRTFVAADGKSYQVPMLAQLSVFRCGSTSAPNDLWYNFIELPYHGESISMLIALPTESSTPLSAIIPHISTKTIDSWMSIMVPKRVQVILPKFTAVAQTDLKEPLKVLGITDMFDSSKANFAKITTGSENLHVSHILQKAKIEVSEDGTKASAATTAILIARSSPPWFIVDRPFLFFIRHNPTGAVLFMGQINKP noted as 0.19
